Tested on: NIH3T3
Test: Cytotoxic Profiling of Annotated Libraries Using Quantitative High-Throughput Screening (AID 1296008); also: nearly all actives have a fitted effect of over 60% in size
Settings: Five cell lines viability, CellTiter-Glo ATP luminescence, 48-72 h
Procedure: Cell-based phenotypic screening is a commonly used approach to discover biological pathways, novel drug targets, chemical probes and high-quality hit-to-lead molecules. […] A pintool (Kalypsys) was used to transfer 23 nL of compound solution to the 1536-well assay plates. […] Plates were left at room temperature for 10 min before imaging the ATP-coupled luminescence using a ViewLux microplate imager (PerkinElmer, Waltham, MA).
Inconclusive results are not listed. Activity calls are given as the source filed them. Calls follow the shape of the dose curve; as a rule, active = well fitted inhibition curve with a large enough effect; inconclusive = small, poorly fitted or top-dose-only effect; inactive = flat fitted curve, though single readings scatter.
Give one outcome, nothing more. List: TRUE = active, FALSE = inactive

Inquiry: Please let me know the test result on file for CC#CCn1c(N2CCCC(N)C2)nc2c1c(=O)n(Cc1nc(C)c3ccccc3n1)c(=O)n2C (configuration not stated) .
Reply text: FALSE

Inquiry: Please let me know the test result on file for CCC1C(=O)N(C)c2cnc(Nc3ccc(C(=O)NC4CCN(C)CC4)cc3OC)nc2N1C1CCCC1 (configuration not stated) .
Reply text: TRUE

Inquiry: Please let me know the test result on file for COc1ccc(Oc2c(Cl)cnn(-c3cc(C)cc(C)c3)c2=O)cc1 .
Reply text: TRUE

Inquiry: Please let me know the test result on file for CC(=O)Nc1nc(C)c(-c2nc(N3CCCC(O)C3)no2)s1 (configuration not stated) .
Reply text: TRUE

Inquiry: Please let me know the test result on file for CC(=O)OC1C(OC(=O)c2ccccc2)C2C(C)(C)CCC(OC(C)=O)C2(C)C23CCC(C)(C2)C(=O)CC13 (configuration not stated) .
Reply text: FALSE

Inquiry: Please let me know the test result on file for CCn1nc(C2CCN(C(=O)CCO)CC2)nc1-c1cnc(N)c(-c2nnc(C(C)(C)C)o2)n1 .
Reply text: TRUE

Inquiry: Please let me know the test result on file for CNC(C)C(=O)NC(C(=O)N1CCCC1C(=O)Nc1snnc1-c1ccccc1)C1CCCCC1 (configuration not stated) .
Reply text: FALSE

###

experiment: Primary qHTS for inhibitors of nuclear receptor binding SET domain protein 2 (NSD2) in an isogenic RCH-ACV NSD2 p.E1099K mutant (9B) (AID 1645876); details: RCH-ACV (leukaemia line) NSD2 E1099K (9B) viability, CellTiter-Glo, 72 h; series mostly up to 44.9 µM; also: nearly all actives have a fitted effect of over 70% in size; also: potency is read from the fitted curve at half-maximal effect
Records with an inconclusive call do not appear. Active and inactive are the calls of the source. Calls come from the whole dose curve; as a rule, active = well fitted inhibition curve with a large enough effect; inconclusive = small, poorly fitted or top-dose-only effect; inactive = flat fitted curve, though single readings scatter.
Readout kind: Potency

Check out these entries, answers already filled in.
[
  {
    "Compound": "CC1CCCC[C@H]2C(=O)C=C[C@H](O)[C@@H]2CC(=O)O1 (stereo partly drawn)",
    "Readout kind": "Potency",
    "Reported": "3.25 µM (active)"
  },
  {
    "Compound": "Clc1ccc(Nc2nc3ccccc3c3nc(C4CCCCC4)[nH]c23)cc1Cl",
    "Readout kind": "Potency",
    "Reported": "16.3 µM (active)"
  },
  {
    "Compound": "CC(=O)O[C@@H]1[C@@H](OC(C)=O)[C@H](C)O[C@@H](O[C@H]2[C@@H]3C=CO[C@@H](O[C@@H]4O[C@H](CO)[C@@H](O)[C@H](O)[C@H]4O)[C@@H]3[C@@]3(CO)O[C@@H]23)[C@@H]1OC(=O)/C=C/c1ccccc1",
    "Readout kind": "Potency",
    "Reported": "6.82 µM (active)"
  },
  {
    "Compound": "COc1cc(C(C)=O)c(OC)c2c1OC(C)(C)C=C2",
    "Readout kind": "Potency",
    "Reported": "inactive"
  },
  {
    "Compound": "COC(=O)Nc1cc(Nc2cc(NC3CC3)c3ncc(C#N)n3n2)c(Cl)c(N2CCN(C)CC2)c1",
    "Readout kind": "Potency",
    "Reported": "0.742 µM (active)"
  }
]

Inquiry: Consider the compound C/C=C(\C)C(=O)O[C@H]1C[C@](C)(O)[C@H]2CC=C(C)[C@H]2[C@@H]2OC(=O)[C@H](C)[C@H]21 and give its measured Potency.
Reply text: inactive

Inquiry: Consider the compound Cc1cc(N2CCOCC2)ccc1Nc1nc(NC2CCCCC2)c2[nH]cnc2n1 and give its measured Potency.
Reply text: 1.29 µM (active)

Inquiry: Consider the compound COc1cc(CCO)ccc1O[C@@H]1O[C@H](CO)[C@@H](O)[C@H](O)[C@H]1O and give its measured Potency.
Reply text: inactive

Inquiry: Consider the compound Nc1ncnc2c1c(-c1ccc(Oc3ccccc3)cc1)nn2[C@@H]1CCCNC1 and give its measured Potency.
Reply text: 1.63 µM (active)

Inquiry: Consider the compound Oc1cccc(C2NC(=S)Nc3cccc(F)c32)c1 (stereo not drawn) and give its measured Potency.
Reply text: 3.65 µM (active)

Inquiry: Consider the compound C/C=C(/C)C(=O)O[C@@H]1C[C@@H](OC(=O)CC(C)C)C2(C)C3C(=O)C=C(C)C2C3C1(C)C (stereo partly drawn) and give its measured Potency.
Reply text: inactive

Inquiry: Consider the compound C=C1C(=O)O[C@@H]2C(OC(=O)/C(C)=C\C)/C(C)=C\C(=O)/C=C(\C)C[C@H](O)[C@@H]12 (stereo partly drawn) and give its measured Potency.
Reply text: 2.26 µM (active)

Inquiry: Consider the compound C=C1CCC2C(C)(C(=O)O)CCCC2(C)C1CCC1=CCOC1=O (stereo not drawn) and give its measured Potency.
Reply text: inactive

Inquiry: Consider the compound CCOC(=O)N1c2ccc(C(F)(F)F)cc2C(N(Cc2cc(C(F)(F)F)cc(C(F)(F)F)c2)C(=O)OC)CC1CC (stereo not drawn) and give its measured Potency.
Reply text: inactive

Inquiry: Consider the compound CC(C)OC(=O)N1CCC(Oc2ncnc3c2cnn3-c2ccc(S(C)(=O)=O)cc2F)CC1 and give its measured Potency.
Reply text: inactive

Inquiry: Consider the compound C=C1C(=O)O[C@@H]2/C=C(/C)[C@@H](OC(C)=O)C/C=C(\C)C[C@@H](OC(=O)/C(=C/CO)CO)[C@@H]12 and give its measured Potency.
Reply text: 7.09 µM (active)

Inquiry: Consider the compound CCOc1ccc(S(=O)(=O)N2CCCCCC2)c2ccccc12 and give its measured Potency.
Reply text: inactive

Inquiry: Consider the compound O=C(NCCN1CCN(c2cccc3c2OCCO3)CC1)c1ccc(F)cc1 and give its measured Potency.
Reply text: inactive

###

biological target: Phospholipid hydroperoxide glutathione peroxidase GPX4 (Homo sapiens) (UniProt P36969); experiment: Primary qHTS Assay for Inhibitors of Recombinant Selenoprotein Glutathione Peroxidase 4 (GPX4) (AID 1845192); details: recombinant GPX4, GR-coupled NADPH fluorescence, 15 min; series mostly up to 50 µM; also: nearly all actives have a fitted effect of over 65% in size
Sequence (P36969 whole entry, looked up): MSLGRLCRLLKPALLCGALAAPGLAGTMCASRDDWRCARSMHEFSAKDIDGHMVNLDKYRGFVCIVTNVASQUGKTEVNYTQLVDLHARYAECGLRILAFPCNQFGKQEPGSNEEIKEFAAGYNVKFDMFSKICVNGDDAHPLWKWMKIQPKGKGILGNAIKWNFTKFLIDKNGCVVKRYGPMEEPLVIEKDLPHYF
Results filed as inconclusive are left out. Activity calls are given as the source filed them. Calls come from the whole dose curve; as a rule, active = well fitted inhibition curve with a large enough effect; inconclusive = small, poorly fitted or top-dose-only effect; inactive = flat fitted curve, though single readings scatter.
Give one outcome, nothing more. List: active, inactive

Inquiry: Please let me know the test result on file for O=C(Cn1cnnn1)N[C@@H]1C(=O)N2C(C(=O)O)=C(CSc3nncs3)CS[C@H]12 .
Reply text: inactive

Inquiry: Please let me know the test result on file for C=C1/C(=C/C=C2\CCC[C@]3(C)[C@@H]([C@H](C)/C=C/[C@H](O)C4CC4)CC[C@@H]23)C[C@@H](O)C[C@@H]1O .
Reply text: inactive

Inquiry: Please let me know the test result on file for CC(=O)OC1C(=O)C2C3OCC4=C3[C@@](C)(CC[C@@H]4O)CC[C@]2(C)[C@H]1C(C)C (stereo partly specified) .
Reply text: inactive

Inquiry: Please let me know the test result on file for C=C1C(=O)OC2CC(C)C(CCC(C)=O)=CCC12 (stereo unspecified) .
Reply text: inactive

Inquiry: Please let me know the test result on file for COc1cc(-n2cnc3cc(-c4ccc(Cl)cc4)sc3c2=O)ccc1OCCN1CCCC1 .
Reply text: inactive

Inquiry: Please let me know the test result on file for C/C=C(\C)C(=O)O[C@H]1C=C(CO)C(=O)[C@H](OC(C)=O)[C@H]1C(C)C .
Reply text: inactive

Inquiry: Please let me know the test result on file for Cn1ccc(NC(=O)c2cc(Oc3ccc(C(=O)N4CCC4)c(F)c3)c3c(c2)OC(C)(C)C3)n1 .
Reply text: inactive

Inquiry: Please let me know the test result on file for O=C(Nc1ccccc1)N1CCN(c2nc(-c3ccccc3)ns2)CC1 .
Reply text: inactive

Inquiry: Please let me know the test result on file for C=CC(=O)N1CCCC(n2nc(-c3ccc(Oc4ccccc4)cc3)c3c(N)ncnc32)C1 (stereo unspecified) .
Reply text: inactive

Inquiry: Please let me know the test result on file for Cc1ccc(O)cc1Nc1ccnc(Nc2cccc(C(N)=O)c2)n1 .
Reply text: inactive

Inquiry: Please let me know the test result on file for COc1ccccc1S(=O)(=O)Nc1ccc2c(c1)CN(C)C(=O)N2 .
Reply text: inactive

Inquiry: Please let me know the test result on file for CC(=O)OC1CC(C)(C(=O)O)CC2C3=CC(=O)C4C5(C)CCC(OC6OC(C(=O)O)C(O)C(O)C6OC6OC(C(=O)O)C(O)C(O)C6O)C(C)(C)C5CCC4(C)C3(C)CCC12C (stereo unspecified) .
Reply text: inactive

Inquiry: Please let me know the test result on file for COc1ccc(CN2CCN(CCCSc3cc(C(C)(C)C)c(O)c(C(C)(C)C)c3)CC2)c(OC)c1OC .
Reply text: inactive

Inquiry: Please let me know the test result on file for COC1CC(O[C@H]2CC[C@]3(C)C4CC[C@@]5(C)C(=O)[C@]4(CC[C@@H]3C2)CC[C@@H]5C2=CC(=O)OC2)OC(C)C1OC1OC(COC2OC(CO)C(O)C(O)C2O)C(O)C(O)C1O (stereo partly specified) .
Reply text: inactive

Inquiry: Please let me know the test result on file for CCN(c1cc(-c2ccc(CN3CCOCC3)cc2)cc(C(=O)NCc2c(C)cc(C)[nH]c2=O)c1C)C1CCOCC1 .
Reply text: inactive

Inquiry: Please let me know the test result on file for O=C(C1CCCCC1)N(CCN1CCN(c2ccccc2O)CC1)c1ccccn1 .
Reply text: inactive

Inquiry: Please let me know the test result on file for Cc1cn2c(n1)Cc1ccc(Cl)cc1C(c1ccc(N)cc1)=N2 .
Reply text: inactive

Inquiry: Please let me know the test result on file for COc1ccc(-c2ccccc2)cc1NS(=O)(=O)c1cc(Cl)cc(Cl)c1O .
Reply text: inactive

Inquiry: Please let me know the test result on file for CN(C)C(CCOc1cccc2ccccc12)c1ccccc1 (stereo unspecified) .
Reply text: inactive

Inquiry: Please let me know the test result on file for CC[C@H]1OC(=O)[C@H](C)[C@@H](O[C@H]2C[C@@](C)(OC)[C@@H](O)[C@H](C)O2)[C@H](C)[C@@H](O[C@H]2O[C@H](C)C[C@H](N(C)C)[C@H]2O)[C@](C)(O)C[C@@H](C)C(=O)[C@H](C)[C@@H](O)[C@]1(C)O .
Reply text: inactive

Inquiry: Please let me know the test result on file for CCS(=O)c1nc(-c2cccc(OCc3ccccc3)c2)cc(C(F)(F)F)n1 (stereo unspecified) .
Reply text: inactive

Inquiry: Please let me know the test result on file for Cc1cn(CCN2CCN(c3ccccc3-c3cc(C#N)cc(C(=O)NCCCN4CCCC4)c3)CC2)c2ccccc12 .
Reply text: inactive

Inquiry: Please let me know the test result on file for COc1ccccc1C(=O)Nc1cccc(NC(=O)c2cccc(C)c2)c1 .
Reply text: inactive

Inquiry: Please let me know the test result on file for Cc1nc(Nc2ccc(F)cc2)nc(N2CCc3ccccc3C2C)c1C (stereo unspecified) .
Reply text: inactive

Inquiry: Please let me know the test result on file for CCOc1ccc(N=C(C)Nc2ccc(OCC)cc2)cc1 .
Reply text: inactive

Inquiry: Please let me know the test result on file for CNc1ccc([N+](=O)[O-])c(Nc2ccc3[nH]ncc3c2)n1 .
Reply text: inactive

Inquiry: Please let me know the test result on file for C=C1C(=O)O[C@@H]2/C=C(/C)[C@@H](OC(C)=O)C/C=C(\C)C[C@@H](OC(=O)/C(=C/CO)CO)[C@@H]12 .
Reply text: inactive

Inquiry: Please let me know the test result on file for NS(=O)(=O)c1ccc(N2N=C(c3ccccc3)CC2c2ccccc2)cc1 (stereo unspecified) .
Reply text: active

Inquiry: Please let me know the test result on file for Cc1c(C(=O)Nc2ccc(N3CCC(N4CCOCC4)CC3)c(C#N)c2)cnn1-c1ccc(Cl)cc1 .
Reply text: inactive

Inquiry: Please let me know the test result on file for C=C1C(=O)O[C@H]2C3=C(C)CCC[C@]3(C)C(=O)C[C@@H]12 .
Reply text: inactive

Inquiry: Please let me know the test result on file for O=C(NCC1(N2CCN(c3ccccc3)CC2)CCOCC1)c1cccnc1Sc1ccccc1 .
Reply text: inactive

Inquiry: Please let me know the test result on file for CC(=O)N1CCN(CCOc2ccc(C3CCN(C4=Nn5c(nnc5C(F)(F)F)CC4)CC3)cc2)CC1 .
Reply text: inactive

Inquiry: Please let me know the test result on file for CC(=O)C1=CCC2C3CC=C4CC(O)CC(O)C4(C)C3C(O)CC12C (stereo unspecified) .
Reply text: inactive

Inquiry: Please let me know the test result on file for CCN(CC)CCCCCCNc1cc(OC)cc2c(C)ccnc12 .
Reply text: inactive

Inquiry: Please let me know the test result on file for Cc1nc(Nc2cnn(C3CCNCC3)c2)nc2c1N(C)C(=O)c1cc3ccccc3cc1N2C .
Reply text: inactive

Inquiry: Please let me know the test result on file for COc1cc2c(NC3CCN(C(C)C)CC3)nc(N3CCC(F)(F)CC3)nc2cc1OCCCN1CCCC1 .
Reply text: active
